# Experiment Notes: Excretion study in SD rats following single subcutaneous administration
# Type: in vivo, SD rat
# Test Conditions: male, Sprague-Dawley, rat, urine, sc, 10 mg/kg
Peptide text beside a SMILES is read from it.
Readout Name: dose excreted at 168 h (%)
// units = %; emit number, no label

Entry CC(C)[C@@H](NC(=O)[C@H](N)Cc1ccc(O)cc1)C(=O)N[C@H](CC(=O)O)C(=O)N[C@H](CCCCN)C(=O)N[C@H](CCCNC(=N)N)C(=O)O [FC-12738, (D-Tyr)-(D-Val)-(D-Asp)-(D-Lys)-(D-Arg)] (HELM PEPTIDE1{[dY].[dV].[dD].[dK].[dR]}$$$$V2.0) — recorded dose excreted at 168 h = 86.7

====

# Experiment Notes: Tissue distribution in SD rats after single subcutaneous injection
# Type: in vivo, SD rat
# Test Conditions: male, SD, rat, kidney, sc, 10 mg/kg
Peptide text beside a SMILES is read from it.
Readout Name: tissue level at time at 8 h (ng/g)
// units = ng/g; emit number, no label

Entry CC(C)[C@@H](NC(=O)[C@H](N)Cc1ccc(O)cc1)C(=O)N[C@H](CC(=O)O)C(=O)N[C@H](CCCCN)C(=O)N[C@H](CCCNC(=N)N)C(=O)O [FC-12738, (D-Tyr)-(D-Val)-(D-Asp)-(D-Lys)-(D-Arg)] (HELM PEPTIDE1{[dY].[dV].[dD].[dK].[dR]}$$$$V2.0) — recorded tissue level at time at 8 h = 14300

====

# Experiment Notes: Tissue distribution in SD rats after single subcutaneous injection
# Assay type: in vivo, SD rat
# Test Conditions: male, SD, rat, plasma, sc, 10 mg/kg
Peptide text beside a SMILES is read from it.
Readout Name: level at 0.5 h

Entry CC(C)[C@@H](NC(=O)[C@H](N)Cc1ccc(O)cc1)C(=O)N[C@H](CC(=O)O)C(=O)N[C@H](CCCCN)C(=O)N[C@H](CCCNC(=N)N)C(=O)O [FC-12738, (D-Tyr)-(D-Val)-(D-Asp)-(D-Lys)-(D-Arg)] (HELM PEPTIDE1{[dY].[dV].[dD].[dK].[dR]}$$$$V2.0) — recorded level at 0.5 h = 14200 ng/mL

====

# Tested on: CYP3A
# Experiment Notes: CYP time-dependent inhibition assay
# Assay type: in vitro ADME, human
# Test Conditions: human, pooled human liver microsomes
Peptide text beside a SMILES is read from it.
Readout Name: IC50 at 30 min

Entry CC(C)[C@@H](NC(=O)[C@H](N)Cc1ccc(O)cc1)C(=O)N[C@H](CC(=O)O)C(=O)N[C@H](CCCCN)C(=O)N[C@H](CCCNC(=N)N)C(=O)O [FC-12738, (D-Tyr)-(D-Val)-(D-Asp)-(D-Lys)-(D-Arg)] (HELM PEPTIDE1{[dY].[dV].[dD].[dK].[dR]}$$$$V2.0) — recorded IC50 at 30 min = > 100 µM

====

# Experiment Notes: Tissue distribution in SD rats after single subcutaneous injection
# Assay type: in vivo, SD rat
# Test Conditions: male, SD, rat, liver, sc, 10 mg/kg
Peptide text beside a SMILES is read from it.
Readout Name: tissue level at time at 8 h (ng/g)
// units = ng/g; emit number, no label

Entry CC(C)[C@@H](NC(=O)[C@H](N)Cc1ccc(O)cc1)C(=O)N[C@H](CC(=O)O)C(=O)N[C@H](CCCCN)C(=O)N[C@H](CCCNC(=N)N)C(=O)O [FC-12738, (D-Tyr)-(D-Val)-(D-Asp)-(D-Lys)-(D-Arg)] (HELM PEPTIDE1{[dY].[dV].[dD].[dK].[dR]}$$$$V2.0) — recorded tissue level at time at 8 h = 269

====

# Experiment Notes: In vitro protein binding, rapid equilibrium dialysis
# Format: in vitro ADME
# Test Conditions: beagle, dog, plasma
Peptide text beside a SMILES is read from it.
Readout Name: fraction unbound at 6 h, 10 µM
Form field (numeric): enter value without unit.

Entry CC(C)[C@@H](NC(=O)[C@H](N)Cc1ccc(O)cc1)C(=O)N[C@H](CC(=O)O)C(=O)N[C@H](CCCCN)C(=O)N[C@H](CCCNC(=N)N)C(=O)O [FC-12738, (D-Tyr)-(D-Val)-(D-Asp)-(D-Lys)-(D-Arg)] (HELM PEPTIDE1{[dY].[dV].[dD].[dK].[dR]}$$$$V2.0) — recorded fraction unbound at 6 h, 10 µM = 0.691

====

# Experiment Notes: Plasma and brain levels in male CD-1 mice after a single IP dose
# Assay type: in vivo, CD-1 mouse
# Test Conditions: male, CD-1, mouse, brain, ip, 10 mg/kg
Peptide text beside a SMILES is read from it.
Readout Name: tissue level at time at 2 h (ng/g)
// units = ng/g; emit number, no label

Entry CC(C)[C@@H](NC(=O)[C@H](N)Cc1ccc(O)cc1)C(=O)N[C@H](CC(=O)O)C(=O)N[C@H](CCCCN)C(=O)N[C@H](CCCNC(=N)N)C(=O)O [FC-12738, (D-Tyr)-(D-Val)-(D-Asp)-(D-Lys)-(D-Arg)] (HELM PEPTIDE1{[dY].[dV].[dD].[dK].[dR]}$$$$V2.0) — recorded tissue level at time at 2 h = 26.9

====

# Experiment Notes: In vitro protein binding, rapid equilibrium dialysis
# Assay type: in vitro ADME
# Test Conditions: CD-1, mouse, plasma
Peptide text beside a SMILES is read from it.
Readout Name: fraction unbound at 6 h, 10 µM
Form field (numeric): enter value without unit.

Entry CC(C)[C@@H](NC(=O)[C@H](N)Cc1ccc(O)cc1)C(=O)N[C@H](CC(=O)O)C(=O)N[C@H](CCCCN)C(=O)N[C@H](CCCNC(=N)N)C(=O)O [FC-12738, (D-Tyr)-(D-Val)-(D-Asp)-(D-Lys)-(D-Arg)] (HELM PEPTIDE1{[dY].[dV].[dD].[dK].[dR]}$$$$V2.0) — recorded fraction unbound at 6 h, 10 µM = 0.479

====

# Experiment Notes: Plasma and brain levels in male CD-1 mice after a single IP dose
# Type: in vivo, CD-1 mouse
# Test Conditions: male, CD-1, mouse, brain, ip, 10 mg/kg
Peptide text beside a SMILES is read from it.
Readout Name: tissue level at time at 1 h (ng/g)
// units = ng/g; emit number, no label

Entry CC(C)[C@@H](NC(=O)[C@H](N)Cc1ccc(O)cc1)C(=O)N[C@H](CC(=O)O)C(=O)N[C@H](CCCCN)C(=O)N[C@H](CCCNC(=N)N)C(=O)O [FC-12738, (D-Tyr)-(D-Val)-(D-Asp)-(D-Lys)-(D-Arg)] (HELM PEPTIDE1{[dY].[dV].[dD].[dK].[dR]}$$$$V2.0) — recorded tissue level at time at 1 h = 35.7

====

# Experiment Notes: Single rising dose pharmacokinetics in beagle dogs
# Type: in vivo, beagle dog
# Test Conditions: male, beagle, dog, plasma, sc, 1 mg/kg
Peptide text beside a SMILES is read from it.
Readout Name: Cmax (ng/mL)
// units = ng/mL; emit number, no label

Entry CC(C)[C@@H](NC(=O)[C@H](N)Cc1ccc(O)cc1)C(=O)N[C@H](CC(=O)O)C(=O)N[C@H](CCCCN)C(=O)N[C@H](CCCNC(=N)N)C(=O)O [FC-12738, (D-Tyr)-(D-Val)-(D-Asp)-(D-Lys)-(D-Arg)] (HELM PEPTIDE1{[dY].[dV].[dD].[dK].[dR]}$$$$V2.0) — recorded Cmax = 925

====

# Experiment Notes: Single rising dose pharmacokinetics in beagle dogs
# Type: in vivo, beagle dog
# Test Conditions: male, beagle, dog, plasma, sc, 25 mg/kg
Peptide text beside a SMILES is read from it.
Readout Name: Cmax (ng/mL)
// units = ng/mL; emit number, no label

Entry CC(C)[C@@H](NC(=O)[C@H](N)Cc1ccc(O)cc1)C(=O)N[C@H](CC(=O)O)C(=O)N[C@H](CCCCN)C(=O)N[C@H](CCCNC(=N)N)C(=O)O [FC-12738, (D-Tyr)-(D-Val)-(D-Asp)-(D-Lys)-(D-Arg)] (HELM PEPTIDE1{[dY].[dV].[dD].[dK].[dR]}$$$$V2.0) — recorded Cmax = 33300

====

# Experiment Notes: Plasma stability
# Type: in vitro ADME, CD-1 mouse
# Test Conditions: CD-1, mouse, plasma
Peptide text beside a SMILES is read from it.
Readout Name: remaining at 2 h, 2 μM (%)
// units = %; emit number, no label

Entry CC(C)[C@@H](NC(=O)[C@H](N)Cc1ccc(O)cc1)C(=O)N[C@H](CC(=O)O)C(=O)N[C@H](CCCCN)C(=O)N[C@H](CCCNC(=N)N)C(=O)O [FC-12738, (D-Tyr)-(D-Val)-(D-Asp)-(D-Lys)-(D-Arg)] (HELM PEPTIDE1{[dY].[dV].[dD].[dK].[dR]}$$$$V2.0) — recorded remaining at 2 h, 2 μM = 100

Data origin: paper doi:10.1101/2023.04.18.537371v1
